target: cMLCK (Homo sapiens); construct: BTN (vendor prefix; by own knowledge, biotinylated); purchased Carna Bioscience #02-460-20N; assay: cMLCK activity, ADP-Glo kinase assay; format: biochemical; details: ADP-Glo kinase assay; relative to Synthesis Example 1 (LEU-0992)
parameter.measured: cMLCK activity compared with the compound of Synthesis Example 1

Worked examples, 5 compounds total:
COc1ccc(C(NC(=O)C(C)C)c2cc([N+](=O)[O-])c3cccnc3c2O)cc1 (stereo not shown); equivalent
CCC(=O)NC(c1ccc(OC)cc1)c1cc([N+](=O)[O-])c2cccnc2c1O (stereo not shown); equivalent
CCCCC(=O)NC(c1ccc(OC)cc1)c1cc(Cl)c2cccnc2c1O (stereo not shown); weaker
O=[N+]([O-])c1cccc(C(Nc2nccs2)c2ccc3cccnc3c2O)c1 (stereo not shown); equivalent
Oc1cccnc1NC(c1ccc(F)cc1)c1ccc2cccnc2c1O (stereo not shown); weaker

Entry Oc1c(C(c2ccc(C(F)(F)F)cc2)N2CCCCC2)ccc2cccnc12 (stereo not shown) ; assay system cMLCK (Homo sapiens); cMLCK activity compared with the compound of Synthesis Example 1 recorded at weaker

Log: cMLCK (Homo sapiens), compound COc1ccc(C(Nc2ccccn2)c2cc(Cl)c3cccnc3c2O)cc1[N+](=O)[O-] (stereo not shown) , cMLCK activity compared with the compound of Synthesis Example 1 = equivalent

Here "Oc1c(CN2CCC(Cc3ccccc3)CC2)cc(Cl)c2cccnc12" was tested on cMLCK (Homo sapiens), and its cMLCK activity compared with the compound of Synthesis Example 1 came to weaker
